Listing: relative viability of selected compounds
System: BEN
Assay: relative viability (nuclei count vs DMSO), 5 days (fraction); higher = more cells survive
Conditions: first compound 0.01581 µM
property.label: relative viability

compound | tgt | reported.measurement
Nc1ccn([C@@H]2O[C@H](CO)[C@@H](O)[C@@H]2O)c(=O)n1 [Cytarabine] + CC(=O)Nc1cccc(-n2c(=O)n(C3CC3)c(=O)c3c(Nc4ccc(I)cc4F)n(C)c(=O)c(C)c32)c1 [Trametinib] (partner 0.02 µM) | BEN | 0.897
COc1cc2nccc(Oc3ccc(NC(=O)Nc4cc(C)on4)c(Cl)c3)c2cc1OC [Tivozanib] + CC(=O)Nc1cccc(-n2c(=O)n(C3CC3)c(=O)c3c(Nc4ccc(I)cc4F)n(C)c(=O)c(C)c32)c1 [Trametinib] (partner 0.02 µM) | BEN | 1.1
COc1cc2nccc(Oc3ccc(NC(=O)Nc4cc(C)on4)c(Cl)c3)c2cc1OC [Tivozanib] + Cc1cc(Nc2cc(N3CCN(C)CC3)nc(Sc3ccc(NC(=O)C4CC4)cc3)n2)n[nH]1 [Tozasertib] (partner 0.1 µM) | BEN | 0.425
COc1cc2nccc(Oc3ccc(NC(=O)Nc4cc(C)on4)c(Cl)c3)c2cc1OC [Tivozanib] + Cc1nc(NC(=O)N2CCC[C@H]2C(N)=O)sc1-c1ccnc(C(C)(C)C(F)(F)F)c1 [Alpelisib] (partner 2 µM) | BEN | 1.04
Nc1ccn([C@@H]2O[C@H](CO)[C@@H](O)[C@@H]2O)c(=O)n1 [Cytarabine] + Cc1nc(NC(=O)N2CCC[C@H]2C(N)=O)sc1-c1ccnc(C(C)(C)C(F)(F)F)c1 [Alpelisib] (partner 2 µM) | BEN | 0.821

* * *

Test system: NCI-H1650
Test: relative viability (nuclei count vs DMSO), 5 days (fraction); higher = more cells survive
Conditions: first compound 0.1581 µM
Listing: relative viability of selected molecules

molecule | relative viability
Nc1ccn([C@@H]2O[C@H](CO)[C@@H](O)[C@@H]2O)c(=O)n1 [Cytarabine] + O=C(CCCCCCC(=O)Nc1ccccc1)NO [Vorinostat] (partner 1 µM) | 0.241
COc1cc2nccc(Oc3ccc(NC(=O)Nc4cc(C)on4)c(Cl)c3)c2cc1OC [Tivozanib] + COc1cc2c(Oc3ccc(NC(=O)C4(C(=O)Nc5ccc(F)cc5)CC4)cc3F)ccnc2cc1OCCCN1CCOCC1 [Foretinib] (partner 0.25 µM) | 0.935
COc1cc2nccc(Oc3ccc(NC(=O)Nc4cc(C)on4)c(Cl)c3)c2cc1OC [Tivozanib] + CC(=O)Nc1cccc(-n2c(=O)n(C3CC3)c(=O)c3c(Nc4ccc(I)cc4F)n(C)c(=O)c(C)c32)c1 [Trametinib] (partner 0.02 µM) | 0.545
Nc1ccn([C@@H]2O[C@H](CO)[C@@H](O)[C@@H]2O)c(=O)n1 [Cytarabine] + CS(=O)(=O)CCNCc1ccc(-c2ccc3ncnc(Nc4ccc(OCc5cccc(F)c5)c(Cl)c4)c3c2)o1 [Lapatinib] (partner 2 µM) | 0.247
Nc1ccn([C@@H]2O[C@H](CO)[C@@H](O)[C@@H]2O)c(=O)n1 [Cytarabine] + COc1cc2c(Oc3ccc(NC(=O)C4(C(=O)Nc5ccc(F)cc5)CC4)cc3F)ccnc2cc1OCCCN1CCOCC1 [Foretinib] (partner 0.25 µM) | 0.347
COc1cc2nccc(Oc3ccc(NC(=O)Nc4cc(C)on4)c(Cl)c3)c2cc1OC [Tivozanib] + CCNC(=O)c1noc(-c2cc(C(C)C)c(O)cc2O)c1-c1ccc(CN2CCOCC2)cc1 [Luminespib] (partner 0.01 µM) | 0.178
COc1cc2nccc(Oc3ccc(NC(=O)Nc4cc(C)on4)c(Cl)c3)c2cc1OC [Tivozanib] + CS(=O)(=O)CCNCc1ccc(-c2ccc3ncnc(Nc4ccc(OCc5cccc(F)c5)c(Cl)c4)c3c2)o1 [Lapatinib] (partner 2 µM) | 0.717
COc1cc2nccc(Oc3ccc(NC(=O)Nc4cc(C)on4)c(Cl)c3)c2cc1OC [Tivozanib] + O=C(c1cc(Cc2n[nH]c(=O)c3ccccc23)ccc1F)N1CCN(C(=O)C2CC2)CC1 [Olaparib] (partner 8 µM) | 0.837
Nc1ccn([C@@H]2O[C@H](CO)[C@@H](O)[C@@H]2O)c(=O)n1 [Cytarabine] + COc1cccc2cc(-c3nc([C@H]4CC[C@H](C(=O)O)CC4)n4ncnc(N)c34)[nH]c12 [OSI-027] (partner 0.5 µM) | 0.311

* * *

Listing: relative viability of selected compounds
Test system: LCLC-103H
Test: relative viability (nuclei count vs DMSO), 5 days (fraction); higher = more cells survive
Conditions: first compound 500 µM
property.label: relative viability

compound | reported.measurement
O=C(O)CCCCC(CCSCc1ccccc1)SCc1ccccc1 (stereo not drawn) [CPI-613] + N=C(N)NC(=N)NCCc1ccccc1 [Phenformin] (partner 250 µM) | 0.278
O=C(O)CCCCC(CCSCc1ccccc1)SCc1ccccc1 (stereo not drawn) [CPI-613] + C[C@]1(O)C[C@@H](c2nc(-c3ccc4ccc(-c5ccccc5)nc4c3)c3c(N)nccn32)C1 [Linsitinib] (partner 1 µM) | 0.866
O=C(O)CCCCC(CCSCc1ccccc1)SCc1ccccc1 (stereo not drawn) [CPI-613] + CS(=O)(=O)N1CCN(Cc2cc3nc(-c4cccc5[nH]ncc45)nc(N4CCOCC4)c3s2)CC1 [Pictilisib] (partner 1 µM) | 0.653

* * *

Listing: relative viability of selected compounds
Tested on: NCI-H2405
Assay: relative viability (nuclei count vs DMSO), 5 days (fraction); higher = more cells survive
Conditions: first compound 0.8 µM
property.label: relative viability

compound | reported.measurement
O=c1[nH]c2ccccc2n1C1CCN(CCCC(c2ccc(F)cc2)c2ccc(F)cc2)CC1 [Pimozide] + C[C@]1(O)C[C@@H](c2nc(-c3ccc4ccc(-c5ccccc5)nc4c3)c3c(N)nccn32)C1 [Linsitinib] (partner 1 µM) | 0.876
O=c1[nH]c2ccccc2n1C1CCN(CCCC(c2ccc(F)cc2)c2ccc(F)cc2)CC1 [Pimozide] + O=C(c1cc(Cc2n[nH]c(=O)c3ccccc23)ccc1F)N1CCN(C(=O)C2CC2)CC1 [Olaparib] (partner 8 µM) | 0.822
O=c1[nH]c2ccccc2n1C1CCN(CCCC(c2ccc(F)cc2)c2ccc(F)cc2)CC1 [Pimozide] + CC(=O)Nc1cccc(-n2c(=O)n(C3CC3)c(=O)c3c(Nc4ccc(I)cc4F)n(C)c(=O)c(C)c32)c1 [Trametinib] (partner 0.02 µM) | 0.621
O=c1[nH]c2ccccc2n1C1CCN(CCCC(c2ccc(F)cc2)c2ccc(F)cc2)CC1 [Pimozide] + CS(=O)(=O)N1CCN(Cc2cc3nc(-c4cccc5[nH]ncc45)nc(N4CCOCC4)c3s2)CC1 [Pictilisib] (partner 1 µM) | 0.422

* * *

Test system: NCI-H1650
Assay: relative viability (nuclei count vs DMSO), 5 days (fraction); higher = more cells survive
Details: first compound 50 µM
Listing: relative viability of selected compounds
property.label: relative viability

compound | reported.measurement
O=C(O)CCCCC(CCSCc1ccccc1)SCc1ccccc1 (centres undefined) [CPI-613] + Cc1nc(Nc2ncc(C(=O)Nc3c(C)cccc3Cl)s2)cc(N2CCN(CCO)CC2)n1 [Dasatinib] (partner 0.075 µM) | 0.312
O=C(O)CCCCC(CCSCc1ccccc1)SCc1ccccc1 (centres undefined) [CPI-613] + Nc1ncn([C@H]2C[C@H](O)[C@@H](CO)O2)c(=O)n1 [Decitabine] (partner 2 µM) | 0.332
O=C(O)CCCCC(CCSCc1ccccc1)SCc1ccccc1 (centres undefined) [CPI-613] + O=C(CCCCCCC(=O)Nc1ccccc1)NO [Vorinostat] (partner 1 µM) | 0.507
O=C(O)CCCCC(CCSCc1ccccc1)SCc1ccccc1 (centres undefined) [CPI-613] + CC(C)C[C@H](NC(=O)[C@H](Cc1ccccc1)NC(=O)c1cnccn1)B(O)O [Bortezomib] (partner 0.002 µM) | 0.187

* * *

Tested on: NCI-H1437
Test: relative viability (nuclei count vs DMSO), 5 days (fraction); higher = more cells survive
Conditions: first compound 0.5 µM

compound | tgt | relative viability
COc1cc2nccc(Oc3ccc(NC(=O)Nc4cc(C)on4)c(Cl)c3)c2cc1OC [Tivozanib] + CC(C)C[C@H](NC(=O)[C@H](Cc1ccccc1)NC(=O)c1cnccn1)B(O)O [Bortezomib] (partner 0.002 µM) | NCI-H1437 | 0.399
COc1cc2nccc(Oc3ccc(NC(=O)Nc4cc(C)on4)c(Cl)c3)c2cc1OC [Tivozanib] + Cc1nc(NC(=O)N2CCC[C@H]2C(N)=O)sc1-c1ccnc(C(C)(C)C(F)(F)F)c1 [Alpelisib] (partner 2 µM) | NCI-H1437 | 0.959
COc1cc2nccc(Oc3ccc(NC(=O)Nc4cc(C)on4)c(Cl)c3)c2cc1OC [Tivozanib] + CC1(C)CCC(c2ccc(Cl)cc2)=C(CN2CCN(c3ccc(C(=O)NS(=O)(=O)c4ccc(N[C@H](CCN5CCOCC5)CSc5ccccc5)c(S(=O)(=O)C(F)(F)F)c4)cc3)CC2)C1 [Navitoclax] (partner 0.5 µM) | NCI-H1437 | 1.02
Nc1ccn([C@@H]2O[C@H](CO)[C@@H](O)[C@@H]2O)c(=O)n1 [Cytarabine] + NC(=O)Nc1cc(-c2cccc(F)c2)sc1C(=O)N[C@H]1CCCNC1 [AZD7762] (partner 0.2 µM) | NCI-H1437 | 0.146
